Cited source for all entries: BigSolDB 2.1

# Cond: in acetone, 328.17 K
Value kind: solubility (mole fraction)
Give bare numbers.

Tell me the measured solubility (mole fraction) of "Cn1cnc2c1c(=O)[nH]c(=O)n2C" , please.
6.77e-05

---

# Cond: in n-propanol, 308.01 K
Value kind: solubility (mole fraction)
One number for each entry.

Tell me the measured solubility (mole fraction) of "Cn1c(=O)c2[nH]cnc2n(C)c1=O" , please.
0.00204

---

# Cond: in methanol, 298.1 K
Value kind: solubility (mole fraction)
Numbers only.

Tell me the measured solubility (mole fraction) of "Cn1cnc2c1c(=O)[nH]c(=O)n2C" , please.
4.34e-05

---

# Cond: in acetone, 308.15 K
Value kind: solubility (mole fraction)

Tell me the measured solubility (mole fraction) of "Cn1c(=O)c2[nH]cnc2n(C)c1=O" , please.
0.00124

---

# Cond: in ethanol, 318.11 K
Value kind: solubility (mole fraction)
One number for each entry.

Tell me the measured solubility (mole fraction) of "Cn1c(=O)c2[nH]cnc2n(C)c1=O" , please.
0.00254

---

# Cond: in ethanol, 288.15 K
Value kind: solubility (mole fraction)
Numbers only.

Tell me the measured solubility (mole fraction) of "Cn1cnc2c1c(=O)[nH]c(=O)n2C" , please.
1.38e-05

---

# Cond: in ethanol, 328.16 K
Value kind: solubility (mole fraction)
Answers are plain numbers.

Tell me the measured solubility (mole fraction) of "Cn1cnc2c1c(=O)[nH]c(=O)n2C" , please.
0.000106

---

# Cond: in acetone, 288.02 K
Value kind: solubility (mole fraction)
Answers are plain numbers.

Tell me the measured solubility (mole fraction) of "Cn1c(=O)c2[nH]cnc2n(C)c1=O" , please.
0.000667

---

# Cond: in ethanol, 308.19 K
Value kind: solubility (mole fraction)
Numbers only.

Tell me the measured solubility (mole fraction) of "Cn1cnc2c1c(=O)[nH]c(=O)n2C" , please.
3.85e-05

---

# Cond: in ethyl acetate, 328.17 K
Value kind: solubility (mole fraction)
Answers are plain numbers.

Tell me the measured solubility (mole fraction) of "Cn1cnc2c1c(=O)[nH]c(=O)n2C" , please.
4.94e-05

---

# Cond: in water, 318.13 K
Value kind: solubility (mole fraction)
Numbers only.

Tell me the measured solubility (mole fraction) of "Cn1c(=O)c2[nH]cnc2n(C)c1=O" , please.
0.00141

---

# Cond: in n-propanol, 298.2 K
Value kind: solubility (mole fraction)

Tell me the measured solubility (mole fraction) of "Cn1cnc2c1c(=O)[nH]c(=O)n2C" , please.
2.06e-05

---

# Cond: in methanol, 328.19 K
Value kind: solubility (mole fraction)
Numbers only.

Tell me the measured solubility (mole fraction) of "Cn1c(=O)c2[nH]cnc2n(C)c1=O" , please.
0.00394

---

# Cond: in methanol, 308.16 K
Value kind: solubility (mole fraction)
Numbers only.

Tell me the measured solubility (mole fraction) of "Cn1c(=O)c2[nH]cnc2n(C)c1=O" , please.
0.00217

---

# Cond: in n-propanol, 318.11 K
Value kind: solubility (mole fraction)
Give bare numbers.

Tell me the measured solubility (mole fraction) of "Cn1c(=O)c2[nH]cnc2n(C)c1=O" , please.
0.00313

---

# Cond: in acetone, 328.1 K
Value kind: solubility (mole fraction)
Answers are plain numbers.

Tell me the measured solubility (mole fraction) of "Cn1c(=O)c2[nH]cnc2n(C)c1=O" , please.
0.0018
